- System Name: EGFR (Homo sapiens, UniProt P00533)
- Sequence (P00533 25-1210): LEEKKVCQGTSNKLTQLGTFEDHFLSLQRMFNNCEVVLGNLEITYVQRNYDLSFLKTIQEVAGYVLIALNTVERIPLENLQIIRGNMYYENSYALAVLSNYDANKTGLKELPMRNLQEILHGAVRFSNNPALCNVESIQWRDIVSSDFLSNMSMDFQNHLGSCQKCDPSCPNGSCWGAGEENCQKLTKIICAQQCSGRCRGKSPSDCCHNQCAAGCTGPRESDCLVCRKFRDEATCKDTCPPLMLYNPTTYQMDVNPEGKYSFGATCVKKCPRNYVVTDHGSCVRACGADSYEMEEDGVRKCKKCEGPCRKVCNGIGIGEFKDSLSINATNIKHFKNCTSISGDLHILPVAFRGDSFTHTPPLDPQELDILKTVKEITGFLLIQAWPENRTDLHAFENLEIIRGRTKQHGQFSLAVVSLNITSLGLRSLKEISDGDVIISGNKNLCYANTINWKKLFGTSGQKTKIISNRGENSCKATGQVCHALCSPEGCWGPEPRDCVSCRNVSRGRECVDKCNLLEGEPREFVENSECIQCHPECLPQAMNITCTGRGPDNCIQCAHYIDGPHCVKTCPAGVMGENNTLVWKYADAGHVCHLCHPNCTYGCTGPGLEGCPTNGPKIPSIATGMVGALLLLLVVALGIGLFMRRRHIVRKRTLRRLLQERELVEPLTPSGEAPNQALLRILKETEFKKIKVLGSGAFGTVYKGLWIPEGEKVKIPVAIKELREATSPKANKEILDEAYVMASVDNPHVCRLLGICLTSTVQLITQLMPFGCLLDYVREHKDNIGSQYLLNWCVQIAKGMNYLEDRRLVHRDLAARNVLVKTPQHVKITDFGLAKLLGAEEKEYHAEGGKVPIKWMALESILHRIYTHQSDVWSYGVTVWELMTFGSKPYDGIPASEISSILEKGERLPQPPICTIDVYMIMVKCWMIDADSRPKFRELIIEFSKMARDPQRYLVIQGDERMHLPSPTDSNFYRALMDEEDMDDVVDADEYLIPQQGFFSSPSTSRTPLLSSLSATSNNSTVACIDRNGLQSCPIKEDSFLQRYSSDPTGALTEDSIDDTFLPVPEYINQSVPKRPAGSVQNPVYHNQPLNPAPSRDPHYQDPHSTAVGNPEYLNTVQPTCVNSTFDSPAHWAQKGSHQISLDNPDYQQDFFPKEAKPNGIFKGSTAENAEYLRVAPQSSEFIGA
- Test Name: ADP-Glo kinase assay, EGFR
- Format: biochemical
- Parameters: purchased BPS Bioscience (assay run externally by the vendor)
- Test Settings: Log[nM] 0; Set2
Items are presented alongside their recorded EGFR % Activity Set2.
Assay Metric: EGFR % Activity Set2 (%)

# Structure Smiles String, Assay Metric, Unit Symbol, Value Observed
measured = [
    ("Clc1ccccc1Nc1ncnc2[nH]ccc12", "EGFR % Activity Set2", "%", 95),
    ("Cc1ccc(Nc2ncnc3[nH]ccc23)cc1", "EGFR % Activity Set2", "%", 98),
    ("Fc1cc(Nc2ncnc3[nH]ccc23)ccc1Cl", "EGFR % Activity Set2", "%", 58),
    ("c1ccc(Oc2ccc(Nc3ncnc4[nH]ccc34)cc2)cc1", "EGFR % Activity Set2", "%", 101),
    ("Cc1ccccc1Nc1ncnc2[nH]ccc12", "EGFR % Activity Set2", "%", 98),
    ("c1ccc(Nc2ncnc3[nH]ccc23)cc1", "EGFR % Activity Set2", "%", 98),
    ("c1ccc(Cc2ccc(Nc3ncnc4[nH]ccc34)cc2)cc1", "EGFR % Activity Set2", "%", 92),
    ("Clc1ccc(Nc2ncnc3[nH]ccc23)cc1", "EGFR % Activity Set2", "%", 96),
    ("Nc1nc(Nc2cccc(Br)c2)c2cc[nH]c2n1", "EGFR % Activity Set2", "%", 99),
    ("Brc1cccc(Nc2ncnc3[nH]ccc23)c1", "EGFR % Activity Set2", "%", 41),
    ("FC(F)(F)c1cccc(Nc2ncnc3[nH]ccc23)c1", "EGFR % Activity Set2", "%", 92),
]
